tested on: MCF7; assay: Antiproliferative activity against human MCF7 cells assessed as cell growth inhibition measured after 48 hrs by SRB assay; type: functional
observable: GI50 (nM)

Previously resolved entries follow.
# smi, studyTarget, measuredValue
data = [
    ("COc1ccc(/C=C/C(=O)Nc2c(/C=C\\c3cc(OC)c(OC)c(OC)c3)ccc(OC)c2O)cc1[N+](=O)[O-]", "MCF7", 19400),
    ("COc1ccc(/C=C\\c2cc(OC)c(OC)c(OC)c2)c(NC(=O)/C=C/c2ccc(F)c(F)c2)c1O", "MCF7", 31),
]

[1] COc1ccc(/C=C\c2cc(OC)c(OC)c(OC)c2)c(NC(=O)/C=C/c2ccc(F)cc2)c1O
[2] COc1ccc(/C=C/C(=O)Nc2c(/C=C\c3cc(OC)c(OC)c(OC)c3)ccc(OC)c2O)cc1O
Q: Between these two entries, 1 and 2 , state which has the higher GI50. Let me know the label of the one you choose.
A: 2
